Recorded values, source patent US20230364012A1.

# test: Particle size of the compositions, tested initially, after 15 days and one month (stability studies)
# Assay type: physicochemical
# statedConditions: Initial
parameter: Particle size D90 (µm)
Express the result in µm but write the number alone.

In plain terms, CCOC(=O)O[C@]1(C(=O)OCCl)CC[C@H]2[C@@H]3CCC4=CC(=O)C=C[C@]4(C)[C@H]3[C@@H](O)C[C@@]21C [API, Loteprednol etabonate] has a documented Particle size D90 of 9.1

----------
# test: Particle size of the compositions, tested initially, after 15 days and one month (stability studies)
# Assay type: physicochemical
# statedConditions: Initial
parameter: Particle size D50 (µm)
The answer is to be given in µm; state only the numeric part.

Form: molecule = CCOC(=O)O[C@]1(C(=O)OCCl)CC[C@H]2[C@@H]3CCC4=CC(=O)C=C[C@]4(C)[C@H]3[C@@H](O)C[C@@]21C [API, Loteprednol etabonate] ; Particle size D50 = 3.3
